Data origin: patent EP1296995B1

Tested system: virion-associated DNA polymerase of WHV
Test description: Endogenous polymerase assay, virion-associated DNA polymerase
Type: biochemical
Measurement setup: endogenous polymerase assay; read-out: IC50 viral DNA pol (WHV DNA polymerase)

Compound structure	Display unit	IC50
Nc1ccn([C@@H]2C[C@@H](O)[C@H](COP(=O)(O)OP(=O)(O)OP(=O)(O)O)O2)c(=O)n1	µM	1.82

---

Test description: in vivo
Measurement setup: monkey, po
Counter-ions that a name gives are not always drawn.

Compound	NOAEL at 600 h
CC(C)[C@H](N)C(=O)OC[C@@H]1O[C@H](n2ccc(N)nc2=O)C[C@H]1OC(=O)[C@@H](N)C(C)C [3'5'-dival-L-dC, hydrochloride]	< 500 mg/kg

---

Test description: Stability study in buffers at various pH
Type: physicochemical
Measurement setup: 0.2m tris-hcl, pH 7.4

Compound	half-life [h]
CC(C)[C@H](N)C(=O)O[C@@H]1C[C@@H](n2ccc(N)nc2=O)O[C@H]1CO [3'-val-L-dC]	7

---

Test description: physchem
Measurement setup: 0.02 m phosphate buffer, pH 7.2, log P (octanol/water)

Compound	logD
CC(C)[C@H](N)C(=O)O[C@@H]1C[C@@H](n2ccc(N)nc2=O)O[C@H]1CO [3'-val-L-dC]	-1.53

---

Test description: Oral bioavailability of L-dC via dival-L-dC (HPLC)
Measurement setup: cynomolgus monkey, urine, 10 mg/kg
Counter-ions that a name gives are not always drawn.

Molecule	dose excreted at 8 h
CC(C)[C@H](N)C(=O)OC[C@@H]1O[C@H](n2ccc(N)nc2=O)C[C@H]1OC(=O)[C@@H](N)C(C)C [3'5'-dival-L-dC, hydrochloride]	~26%

---

Test description: in vitro
Measurement setup: human, bone marrow cfu-gm

Compound	Display unit	IC50
Cc1cn([C@H]2C[C@H](N=[N+]=[N-])[C@@H](CO)O2)c(=O)[nH]c1=O [ZDV, zidovudine]	µM	1.8

---

Test description: in vitro
Measurement setup: human, hepg2 cells

Compound	inhibition at 336 h
Nc1ccn([C@H]2CC[C@@H](CO)O2)c(=O)n1 [ddC, zalcitabine]	87%

---

Tested on: HepG2 cells
Test description: in vitro
Measurement setup: HepG2 cells, after 14 days of treatment

Molecule	CC50
Nc1ccn([C@@H]2C[C@@H](O)[C@H](CO)O2)c(=O)n1 [L-dC, 2'-deoxy-β-L-cytidine]	> 2000 µM

---

Test description: Stability study in buffers at various pH
Type: physicochemical
Measurement setup: pH 1.2 (135 mM KCl-HCl buffer solution); read-out: half-life
Quantity kind: half-life

Compound structure	Quantity kind	Result
CC(C)[C@H](N)C(=O)O[C@@H]1C[C@@H](n2ccc(N)nc2=O)O[C@H]1CO	half-life	> 2880 min

---

Measurement setup: monkey, in vivo, po, 10 mg/kg

Compound structure	AUC(0-t)
Nc1ccn([C@@H]2C[C@@H](O)[C@H](CO)O2)c(=O)n1	13.7 µM·h

---

Test description: physchem
Measurement setup: 0.02 m phosphate buffer, pH 7.2
Where a name gives a salt, the structure may show the parent alone.
Quantity kind: logD

Compound	Readout number
CC(=O)OC[C@@H]1O[C@H](n2ccc(N)nc2=O)C[C@H]1OC(C)=O	-0.74
CC(C)[C@H](N)C(=O)OC[C@@H]1O[C@H](n2ccc(N)nc2=O)C[C@H]1OC(=O)[C@@H](N)C(C)C [3'5'-dival-L-dC, hydrochloride]	-0.86
